B1: Ribonuclease HI, P0A7Y4 (parent)
chain: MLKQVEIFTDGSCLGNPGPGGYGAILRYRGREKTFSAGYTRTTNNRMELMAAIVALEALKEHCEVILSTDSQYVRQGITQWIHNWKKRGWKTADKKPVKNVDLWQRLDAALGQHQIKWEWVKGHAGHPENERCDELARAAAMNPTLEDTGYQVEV

# Variants of: B1
# assay.conditions: Escherichia coli (strain K12); pH 3; Thermal; CD; glycine-HCl 10 mM; reversible: yes; structure 2RN2; whole UniProt chain shown

{"residue.change": "Y28F R29H G30A R31H", "unfolding enthalpy (van 't Hoff) (kcal/mol)": 92.5}
{"residue.change": "Q113P", "unfolding enthalpy (van 't Hoff) (kcal/mol)": 100}
{"residue.change": "K91R D94E", "unfolding enthalpy (van 't Hoff) (kcal/mol)": 93.8}
{"residue.change": "H62P", "unfolding enthalpy (van 't Hoff) (kcal/mol)": 110}
{"residue.change": "K91R", "unfolding enthalpy (van 't Hoff) (kcal/mol)": 119}
{"residue.change": "A125T", "unfolding enthalpy (van 't Hoff) (kcal/mol)": 96.4}
{"residue.change": "D94R K95G", "unfolding enthalpy (van 't Hoff) (kcal/mol)": 127}
{"residue.change": "K91R K95G", "unfolding enthalpy (van 't Hoff) (kcal/mol)": 114}
{"residue.change": "K95G", "unfolding enthalpy (van 't Hoff) (kcal/mol)": 102}
